- Target: GSK3B (Homo sapiens)
- Sequence (P49841 whole entry): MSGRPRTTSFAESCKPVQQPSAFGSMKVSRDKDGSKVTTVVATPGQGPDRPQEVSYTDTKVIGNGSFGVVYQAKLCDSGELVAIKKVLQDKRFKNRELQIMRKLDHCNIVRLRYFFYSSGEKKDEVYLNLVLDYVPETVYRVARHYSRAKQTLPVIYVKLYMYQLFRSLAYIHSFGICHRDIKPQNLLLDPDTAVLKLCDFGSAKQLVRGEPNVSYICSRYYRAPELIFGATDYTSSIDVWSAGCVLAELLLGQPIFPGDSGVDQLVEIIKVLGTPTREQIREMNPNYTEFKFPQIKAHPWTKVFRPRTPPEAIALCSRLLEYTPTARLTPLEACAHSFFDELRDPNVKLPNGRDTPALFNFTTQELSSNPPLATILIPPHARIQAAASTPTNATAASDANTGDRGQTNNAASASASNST
- Run Description: In vitro enzymatic activity assay, GSK3β
- Format: biochemical
- Design: Full length human GSK3α or GSK3B expressed as N-terminal GST fusion proteins; GST (N); purchased Carna Biosciences (Japan); host or cells: baculovirus host
- Test Conditions: 1.0 mM ATP, 1.0 μM peptide substrate, 120 min, 25° C, read-out: Enzyme GSK3β (IC50)
I'd appreciate it if you could supply IC50 values for the items below.
Please reply with the bare figure in nM and do not write the unit itself.

Quick check: IC50 of C#CCC(N)c1cncc(NC(=O)c2c(N)ncn(-c3c(Cl)cc(OCC)cc3Cl)c2=O)c1 (single isomer, unassigned) [Example 151] ?
501

Looking for the measured IC50 of CCOc1cc(C)c(-n2cnc(N)c(C(=O)Nc3cncc(C4CCC(C)N4)c3)c2=O)c(C)c1 (single isomer, unassigned) [Example 92] , can you help?
1030

# get_value(readout='IC50', item= Nc1ncn(-c2c(Cl)cc(C(F)F)cc2Cl)c(=O)c1C(=O)Nc1cccc([C@@H]2CCCN2)c1 [Example 54] )
345

Need IC50, item Nc1ncn(-c2c(Cl)cccc2Cl)c(=O)c1C(=O)Nc1cccc([C@@H]2CNC(=O)CN2)c1 (single isomer, unassigned) [Example 189]
2160

Any idea what its IC50 is? The compound is COc1c(NC(=O)c2c(N)ncn(-c3c(Cl)cccc3Cl)c2=O)cccc1C1CCCN1 (single isomer, unassigned) [Example 169]
105

Can you share its IC50? I mean this compound: COc1cc(C)c(-n2cnc(N)c(C(=O)Nc3cncc(C4CCCCCN4)c3)c2=O)c(C)c1 (single isomer, unassigned) [Example 53]
625

Entry under review: [2H]C([2H])([2H])NC(C)c1cncc(NC(=O)c2c(N)ncn(-c3c(C)cc(OC)cc3Cl)c2=O)c1 (single isomer, unassigned) [Example 4] . Reported IC50?
187

Report IC50 for CCOc1cc(Cl)c(-n2cnc(N)c(C(=O)Nc3cncc(CNCCOC)c3)c2=O)c(Cl)c1 [Example 25] please.
692

Which IC50 reading was recorded for the compound COCc1cc(C)c(-n2cnc(N)c(C(=O)Nc3cncc([C@H]4CCC[C@H](C)N4)c3)c2=O)c(C)c1 (single isomer, unassigned) [Example 102] ?
684

Given the entry CNC(COC)c1cncc(NC(=O)c2c(N)ncn(-c3c(Cl)cc(C(F)(F)F)cc3Cl)c2=O)c1 (single isomer, unassigned) [Example 121] , report its measured IC50.
306

Record request: IC50 value, item COc1cc(Cl)c(-n2cnc(N)c(C(=O)Nc3cncc([C@@H]4C[C@@H](C)N4)c3)c2=O)c(Cl)c1 (single isomer, unassigned) [Example 214]
930

Which IC50 is reported for this compound? CCOCc1cc(Cl)c(-n2cnc(N)c(C(=O)Nc3cncc(C(N)CC)c3)c2=O)c(Cl)c1 (single isomer, unassigned) [Example 129]
105

Requested read-out: IC50. Entry: CNCc1cncc(NC(=O)c2c(N)ncn(-c3c(C)cc(COC)cc3C)c2=O)c1 [Example 99]
1020
